Origin of values: paper PMC11995724

Test: in vitro
Conditions: human, hek293t cells
MEASUREMENT_LABEL: viability at 48 h, 25 µM (%)
The response must be a number in % with no trailing unit.

## Task Sample "CCCCNC(=O)C(C#N)=Cc1c[nH]nn1" — what was its viability at 48 h, 25 µM?
## Result 116

## Task Sample CC(Cl)C(=O)C=C1N(C)c2ccccc2C1(C)C (centres unmarked) — what was its viability at 48 h, 25 µM?
## Result 5.56

## Task Sample "C=CC(=O)N1CCC(C(=O)Nc2nc3cc(F)c(C)cc3s2)CC1" — what was its viability at 48 h, 25 µM?
## Result 191

## Task Sample "O=C1C=CC(=O)N1c1ccc(F)cc1" — what was its viability at 48 h, 25 µM?
## Result 68.4

## Task Sample "O=C(CCl)N[C@H]1CCCc2ccccc21" — what was its viability at 48 h, 25 µM?
## Result 24

## Task Sample CC(Cl)C(=O)Nc1sc2c(c1C(N)=O)CCC2 (centres unmarked) — what was its viability at 48 h, 25 µM?
## Result 119

## Task Sample CC(Cl)C(=O)Nc1ncnc2[nH]cnc12 (centres unmarked) [6-I18, 2-chloro-N-(9H-purin-6-yl)propanamide] — what was its viability at 48 h, 25 µM?
## Result 100

## Task Sample "Cc1cc(C(=O)CCl)c(C)n1-c1ccc(S(N)(=O)=O)cc1" — what was its viability at 48 h, 25 µM?
## Result 85.8

## Task Sample "C=CC(=O)N(Cc1ccc(F)cn1)c1cnn(C2CCCC2)c1C" — what was its viability at 48 h, 25 µM?
## Result 97.3

## Task Sample C=CC(=O)N1CCc2[nH]cnc2C1c1ccnn1C (centres unmarked) — what was its viability at 48 h, 25 µM?
## Result 29.2

## Task Sample "N#CC(=Cc1ccccc1OC(F)F)C(=O)Nc1ccccc1F" — what was its viability at 48 h, 25 µM?
## Result 82.5

## Task Sample C=CC(=O)NC(CO)c1ccnn1C (centres unmarked) — what was its viability at 48 h, 25 µM?
## Result 45.9

## Task Sample C=CC(=O)N1CCCC(c2nc(N(C)C)no2)C1 (centres unmarked) — what was its viability at 48 h, 25 µM?
## Result 29.9

## Task Sample CC(C#N)Oc1ccc(C=C(C#N)C(=O)Nc2ccccc2Cl)cc1 (centres unmarked) — what was its viability at 48 h, 25 µM?
## Result 111

## Task Sample CC(Cl)C(=O)NCC1CCCCC1 (centres unmarked) [4-I10, 2-chloro-N-(cyclohexylmethyl)propanamide] — what was its viability at 48 h, 25 µM?
## Result 90.9

## Task Sample CC(Cl)C(=O)N1CCN(C(=O)C(F)(F)F)C2(CCCCC2)C1 (centres unmarked) — what was its viability at 48 h, 25 µM?
## Result 74

## Task Sample "Cc1cc(C(=O)CCl)c(C)c(C)c1C" — what was its viability at 48 h, 25 µM?
## Result 0.728

## Task Sample "CCc1nsc(N2CCN(C(=O)C(C#N)=Cc3ccco3)CC2)n1" — what was its viability at 48 h, 25 µM?
## Result 121

## Task Sample CC(Cl)C(=O)N1Cc2ccccc2C(n2cccn2)C1 (centres unmarked) — what was its viability at 48 h, 25 µM?
## Result 103

## Task Sample "C=CC(=O)N1CCC(C(=O)Nc2ccn(Cc3ccccn3)n2)CC1" — what was its viability at 48 h, 25 µM?
## Result 53.3

## Task Sample "CCOC(=O)c1c(NC(=O)CCl)sc2c1CCCC2" — what was its viability at 48 h, 25 µM?
## Result 44.9

## Task Sample "CC(C)NC(=O)C(C#N)=Cc1c(Cl)nc2ccccn12" — what was its viability at 48 h, 25 µM?
## Result 112

## Task Sample "Cc1csc(C2(NC(=O)CCl)CCOCC2)n1" — what was its viability at 48 h, 25 µM?
## Result 0.732

---

Assay: in vitro
Conditions: human, hek293t cells
MEASUREMENT_LABEL: viability at 48 h, 25 µM (%)
The response must be a number in % with no trailing unit.

## Task Sample C=CC(=O)Nc1ccc(O)c(C(=O)O)c1 [1-G06, 2-hydroxy-5-(prop-2-enamido)benzoic acid] — what was its viability at 48 h, 25 µM?
## Result 70.3

## Task Sample O=C(CCl)N(Cc1nc(C2CCCCCC2)no1)C1CC1 [7-B16] — what was its viability at 48 h, 25 µM?
## Result 0.667

## Task Sample C=CC(=O)NCc1ccc(C(=O)N2CCNC(=O)CC2)cc1 [3-I04] — what was its viability at 48 h, 25 µM?
## Result 93.2

## Task Sample C=CC(=O)Nc1ccc(S(C)(=O)=O)cc1OCC [2-C08] — what was its viability at 48 h, 25 µM?
## Result 0.998

## Task Sample O=C(CCl)Nc1cccc(Oc2ccccc2)c1 [4-P19, 2-chloro-N-(3-phenoxyphenyl)acetamide] — what was its viability at 48 h, 25 µM?
## Result 0.14

## Task Sample CC(Cl)C(=O)Nc1cccc2ncccc12 (stereo not drawn) [4-M10, 2-chloro-N-(quinolin-5-yl)propanamide] — what was its viability at 48 h, 25 µM?
## Result 97.4

## Task Sample C=CC(=O)NCc1c(C(F)(F)F)coc1C [1-E17] — what was its viability at 48 h, 25 µM?
## Result 84.9

## Task Sample CC(Cl)C(=O)NCc1ccn(CC(F)F)n1 (stereo not drawn) [7-I17] — what was its viability at 48 h, 25 µM?
## Result 88.7

## Task Sample N#CC(=Cc1ccc(N2CCOCC2)cc1)C(=O)Nc1nccs1 [9-F17] — what was its viability at 48 h, 25 µM?
## Result 95.6

## Task Sample C=CC(=O)N1CCC(C(=O)NCc2c[nH]cn2)CC1 [2-G10] — what was its viability at 48 h, 25 µM?
## Result 98.7

## Task Sample C=CC(=O)NCc1cc(Cl)cc(S(C)(=O)=O)c1 [3-N15] — what was its viability at 48 h, 25 µM?
## Result 76.8

## Task Sample N#CC(=Cc1csc(COc2ccccc2)n1)C(N)=O [9-B12] — what was its viability at 48 h, 25 µM?
## Result 116

## Task Sample Cn1ccc(NC(=O)C(C#N)=Cc2ncccc2C(F)(F)F)n1 [8-F17] — what was its viability at 48 h, 25 µM?
## Result 95.2

## Task Sample N#CC(=Cc1c(F)cccc1Cl)C(=O)Nc1ccc(C(=O)O)cc1 [9-P06] — what was its viability at 48 h, 25 µM?
## Result 142

## Task Sample C=CC(=O)N(CC)Cc1nc2ccsc2c(=O)[nH]1 [3-P16] — what was its viability at 48 h, 25 µM?
## Result 78.2

---

Please provide measured viability at 48 h, 25 µM for the entries that follow.
Test: in vitro
Conditions: human, hek293t cells
The response must be a number in % with no trailing unit.

## Task Sample CC(Cl)C(=O)NCCc1ccnn1C (centres unmarked) [7-I21] — what was its viability at 48 h, 25 µM?
## Result 92.3

## Task Sample N#CC(=Cc1ccc(O)cc1)C(=O)NCc1ccc(Cl)cc1 [8-B16] — what was its viability at 48 h, 25 µM?
## Result 102

## Task Sample O=C(CCl)NC(c1ccccc1)C1CCCCC1 (centres unmarked) [6-E12] — what was its viability at 48 h, 25 µM?
## Result 1.12

## Task Sample O=C(CCl)N1N=C(c2cccs2)CC1c1cccc(O)c1 (centres unmarked) [6-L04] — what was its viability at 48 h, 25 µM?
## Result 0.561

## Task Sample O=C(CCl)Nc1nc2c(s1)CCCC2 [5-G15] — what was its viability at 48 h, 25 µM?
## Result 1.2

## Task Sample CCC(c1cc(Cl)cc(Cl)c1)N(C)C(=O)CCl (centres unmarked) [7-L10] — what was its viability at 48 h, 25 µM?
## Result 0.495

## Task Sample N#Cc1ccc(OC2CN(C(=O)CCl)C2)cc1 [5-K07] — what was its viability at 48 h, 25 µM?
## Result 0.233

## Task Sample O=C(CCl)c1ccc2c(c1)CCN(C(=O)C(F)(F)F)C2 [10-E09] — what was its viability at 48 h, 25 µM?
## Result 4.03

## Task Sample COc1ccc(C=C(C#N)C(=O)Nc2ccc(Cl)cc2Cl)cc1 [8-K03] — what was its viability at 48 h, 25 µM?
## Result 104

## Task Sample C=CC(=O)N1CCN(C(=O)c2cc(C)no2)CC1 [1-N19] — what was its viability at 48 h, 25 µM?
## Result 102

## Task Sample CC(Cl)C(=O)NC(Cn1cncn1)c1ccccc1 (centres unmarked) [7-M09] — what was its viability at 48 h, 25 µM?
## Result 90.3

## Task Sample Cc1c(C(=O)N2CCN(C(=O)C(C)Cl)CC2)sc2ccccc12 (centres unmarked) [7-H09] — what was its viability at 48 h, 25 µM?
## Result 88.8

## Task Sample C=CC(=O)NC(c1nc(C)cs1)C1CC1 (centres unmarked) [3-D21] — what was its viability at 48 h, 25 µM?
## Result 74.9

## Task Sample C=CC(=O)N1CCCC(S(=O)(=O)NC)C1 (centres unmarked) [3-D17] — what was its viability at 48 h, 25 µM?
## Result 67.5

## Task Sample C=CC(=O)NC1CCCN(C(=O)CCC(F)(F)F)C1 (centres unmarked) [1-B03] — what was its viability at 48 h, 25 µM?
## Result 108

## Task Sample CCN(CC)C(=O)c1ccc(NC(=O)CCl)cc1 [4-C05] — what was its viability at 48 h, 25 µM?
## Result 0.463

## Task Sample C=CC(=O)N1CCC(n2ccnn2)CC1 [3-K09] — what was its viability at 48 h, 25 µM?
## Result 65.2

## Task Sample COc1ccccc1CN(C)C(=O)CCl [6-C09] — what was its viability at 48 h, 25 µM?
## Result 1.06

## Task Sample C=CC(=O)Nc1ccnn1CC1CC1 [3-G09] — what was its viability at 48 h, 25 µM?
## Result 41.5

## Task Sample CC(C)c1ccc(Cn2[nH]ccc2=NC(=O)CCl)cc1 [5-P12] — what was its viability at 48 h, 25 µM?
## Result -0.215

## Task Sample C=CC(=O)N(C)Cc1cc2ccccc2o1 [3-I09] — what was its viability at 48 h, 25 µM?
## Result 47.1

## Task Sample COc1ccc(C=C(C#N)C(=O)Nc2ccccc2C(=O)O)cc1O [9-A18] — what was its viability at 48 h, 25 µM?
## Result 104

## Task Sample COc1ccc(S(=O)(=O)N(C)C)cc1NC(=O)CCl [4-E05] — what was its viability at 48 h, 25 µM?
## Result 0.891

## Task Sample Cc1cc(C)c(NC(=O)C(C#N)=Cc2cc(F)ccc2F)c(C)c1 [8-A10] — what was its viability at 48 h, 25 µM?
## Result 2.85

## Task Sample C=CC(=O)Nc1cccc(NS(=O)(=O)C2CC2)c1 [3-D16] — what was its viability at 48 h, 25 µM?
## Result 80.5

## Task Sample C=CC(=O)N1CCC(C(=O)N2CCCCC(SCC)C2)CC1 (centres unmarked) [2-P10] — what was its viability at 48 h, 25 µM?
## Result 108

## Task Sample C=CC(=O)Nc1ccc(F)cc1C(C)(F)F [1-C16] — what was its viability at 48 h, 25 µM?
## Result 137

## Task Sample N#Cc1c(NC(=O)CCl)oc(-c2ccco2)c1-c1ccco1 [5-D10] — what was its viability at 48 h, 25 µM?
## Result 45.5

## Task Sample C=CCNC(=O)C(C#N)=Cc1ccc(C)s1 [9-F05] — what was its viability at 48 h, 25 µM?
## Result 108

## Task Sample Cc1cc(C2(NC(=O)C(C)Cl)CCOCC2)on1 (centres unmarked) [7-O13] — what was its viability at 48 h, 25 µM?
## Result 95.5

## Task Sample N#CC(=Cc1cc(F)ccc1F)C(=O)NC1CCCCC1 [8-G08] — what was its viability at 48 h, 25 µM?
## Result 9.88

## Task Sample N#CC(=CN1CCN(c2ccccc2)CC1)C(=O)Nc1ccc(F)cc1 [8-C20] — what was its viability at 48 h, 25 µM?
## Result 72.5

## Task Sample C=CC(=O)N1CCOC(c2noc(C(C)C)n2)C1 (centres unmarked) [1-O05] — what was its viability at 48 h, 25 µM?
## Result 87

## Task Sample N#Cc1cccc(C(NC(=O)CCl)C(F)(F)F)c1 (centres unmarked) [7-N04] — what was its viability at 48 h, 25 µM?
## Result 0.24

## Task Sample Cc1cc(C)c(NC(=O)C(C#N)=Cc2ccccc2)c(C)c1 [8-E19] — what was its viability at 48 h, 25 µM?
## Result 29.4

## Task Sample C=CC(=O)Nc1ccc(CN2CCC(C)CC2)cc1 [1-D21] — what was its viability at 48 h, 25 µM?
## Result 157

## Task Sample O=C(CCl)NCc1ccccc1C(F)(F)F [6-K10] — what was its viability at 48 h, 25 µM?
## Result 2.67

## Task Sample CC(=O)c1ccc(S(=O)(=O)N2CCN(C(=O)CCl)CC2)cc1 [5-P16] — what was its viability at 48 h, 25 µM?
## Result 1.74

## Task Sample O=C(CCl)Nc1cc(-c2ccccc2)nn1-c1ccccc1 [4-A20] — what was its viability at 48 h, 25 µM?
## Result 0.296

## Task Sample Cc1cc(C(C)(C)C)cc(C)c1NC(=O)CCl [4-L19] — what was its viability at 48 h, 25 µM?
## Result 1.04

## Task Sample C=CC(=O)N(C)Cc1cc(-c2ccccc2)[nH]n1 [1-B05] — what was its viability at 48 h, 25 µM?
## Result 92.7
